Target: Adenosine receptor A1 (Rattus norvegicus, UniProt P25099)
Sequence (P25099 whole entry): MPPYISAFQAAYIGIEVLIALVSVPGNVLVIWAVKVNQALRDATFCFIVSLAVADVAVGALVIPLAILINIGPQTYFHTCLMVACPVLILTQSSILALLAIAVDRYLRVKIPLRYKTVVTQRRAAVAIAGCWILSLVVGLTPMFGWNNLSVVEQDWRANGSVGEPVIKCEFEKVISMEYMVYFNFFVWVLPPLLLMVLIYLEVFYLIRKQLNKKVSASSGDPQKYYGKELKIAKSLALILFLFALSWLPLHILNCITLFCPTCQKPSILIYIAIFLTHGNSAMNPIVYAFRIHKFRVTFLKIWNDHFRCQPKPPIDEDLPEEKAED
pKi: −log10 of the molar value.
// note: pKi values for Adenosine receptor A1 (Rattus norvegicus, UniProt P25099) were reported in different studies
Classify as follows. Reported pKi greater than or equal to 6: met. Reported pKi below: not met.

Would you please look over these solved cases?
CCn1c(=O)c2c(nc(Cc3cccs3)n2C)n(Cc2ccco2)c1=O : met
Cn1c(=O)c2c(nc3n2CCCN3Cc2ccc(Br)cc2F)n(C)c1=O : not met
CONc1nc(Cl)nc2c1ncn2[C@@H]1O[C@H](c2ccon2)[C@@H](O)[C@H]1O : met
OC[C@H]1O[C@@H](n2cnc3c(NN4CCCCC4)nc(Cl)nc32)[C@H](O)[C@@H]1O : met
Cc1c(C)n([C@H](C)c2ccccc2)c2nc(-c3cnccn3)nc(N)c12 : met
COc1ccc(CCOc2nc(N)c3ncn(C4O[C@H](CO)[C@@H](O)[C@H]4O)c3n2)cc1OC (stereo not given in full) : met
Nc1nc(C#CC(O)C2(O)CCCCC2)cn2nc(-c3ccco3)nc12 (stereo not given) : met
Nc1nc(C#CC(O)c2ccccc2)cn2nc(-c3ccco3)nc12 (stereo not given) : not met
Cn1c(=O)c2ncn(C)c2n(C)c1=O : not met
Cc1ccccc1CCOc1nc(N)c2ncn(C3O[C@H](CO)[C@@H](O)[C@H]3O)c2n1 (stereo not given in full) : met

-- ask Does pKi meet or surpass 6 for CCCn1c(=O)n(C)c(=O)c2c1ncn2C ?
-- reply not met

-- ask Does pKi meet or surpass 6 for O=C(Nc1nc(-c2ccccc2)cs1)c1ccc(C(F)(F)F)cc1 ?
-- reply met

-- ask Does pKi meet or surpass 6 for CC(C)Oc1cccc2c1CCCC2Nc1ncnc2c1ncn2[C@@H]1O[C@H](CO)[C@@H](O)[C@H]1O (stereo not given in full) ?
-- reply met

-- ask Does pKi meet or surpass 6 for COc1ccc(C(=O)Nc2nc(-c3ccccc3)cc3ccccc23)cc1 ?
-- reply not met

-- ask Does pKi meet or surpass 6 for COc1ccc2c(c1)CCC2Nc1ncnc2c1ncn2[C@@H]1O[C@H](CO)[C@@H](O)[C@H]1O (stereo in doubt; 4) ?
-- reply met

-- ask Does pKi meet or surpass 6 for O=S(=O)(O)c1ccc(CCCNc2ncnc3c2ncn3[C@@H]2O[C@H](CO)[C@@H](O)[C@H]2O)cc1 ?
-- reply met

-- ask Does pKi meet or surpass 6 for O=C(Nc1nc(-c2ccccn2)cs1)c1ccccc1 ?
-- reply not met

---

// note: log10(Ki) values for UniProt:P25099 were reported in different studies
Lab note - Ki converted to log10 from values in nM.

Completed entries (count: 5):
CCCn1c(=O)c2c(nc3n2CCCN3CCc2ccc(OCC(=O)NCCCN(CC)CC)cc2)n(CCC)c1=O : 2.13
COc1ccc2c(c1)C(Nc1ncnc3c1ncn3[C@@H]1O[C@H](CO)[C@@H](O)[C@H]1O)CCC2 (single isomer, unassigned; isomer B) : 1.08
CN1CC(=O)N(C)c2ncn(Cc3ccccc3)c2C1=O : 4.48
CC[C@@H](Nc1nc(Cl)nc2c1ncn2C)c1ccccc1 : 3.52
OC[C@H]1OC(n2cnc3c(NCC4=CCCCc5ccccc54)ncnc32)[C@H](O)[C@@H]1O (stereo not given in full) : 2.61

List log10(Ki) for every entry below, keeping the order given.
1. Cc1c(C)n([C@H](C)c2ccccc2)c2nc(-c3cc[n+]([O-])cc3)nc(N)c12
2. CCSCCn1c(=O)c2[nH]c(Cc3ccccc3)nc2n(Cc2ccco2)c1=O
3. CC(O)(C#Cc1cn2nc(-c3ccco3)nc2c(N)n1)c1csc2ccccc12 (stereo not given)
4. COc1cccc(CCC(=O)Nc2nc3ccccc3c(=O)s2)c1
5. OCCn1ncc2c1nc(NCc1ccccc1)n1nc(-c3ccco3)nc21
6. CCCN1C(=O)N2C[C@@H](CC)N=C2c2[nH]c(C34CCC(O)(CC3)CC4)nc21

-- reply
[2.69, 2.60, 2.53, 2.56, 2.52, 0.78]
